Give measured Kd for each item. Keep answers brief.
assay.system: T1, integrin αvβ3 (human, UniProt P06756 31-992; P05106 27-718)
T1 construct: also called Integrin aVb3
T1 sequence (P06756 31-992, chain 1 of 2): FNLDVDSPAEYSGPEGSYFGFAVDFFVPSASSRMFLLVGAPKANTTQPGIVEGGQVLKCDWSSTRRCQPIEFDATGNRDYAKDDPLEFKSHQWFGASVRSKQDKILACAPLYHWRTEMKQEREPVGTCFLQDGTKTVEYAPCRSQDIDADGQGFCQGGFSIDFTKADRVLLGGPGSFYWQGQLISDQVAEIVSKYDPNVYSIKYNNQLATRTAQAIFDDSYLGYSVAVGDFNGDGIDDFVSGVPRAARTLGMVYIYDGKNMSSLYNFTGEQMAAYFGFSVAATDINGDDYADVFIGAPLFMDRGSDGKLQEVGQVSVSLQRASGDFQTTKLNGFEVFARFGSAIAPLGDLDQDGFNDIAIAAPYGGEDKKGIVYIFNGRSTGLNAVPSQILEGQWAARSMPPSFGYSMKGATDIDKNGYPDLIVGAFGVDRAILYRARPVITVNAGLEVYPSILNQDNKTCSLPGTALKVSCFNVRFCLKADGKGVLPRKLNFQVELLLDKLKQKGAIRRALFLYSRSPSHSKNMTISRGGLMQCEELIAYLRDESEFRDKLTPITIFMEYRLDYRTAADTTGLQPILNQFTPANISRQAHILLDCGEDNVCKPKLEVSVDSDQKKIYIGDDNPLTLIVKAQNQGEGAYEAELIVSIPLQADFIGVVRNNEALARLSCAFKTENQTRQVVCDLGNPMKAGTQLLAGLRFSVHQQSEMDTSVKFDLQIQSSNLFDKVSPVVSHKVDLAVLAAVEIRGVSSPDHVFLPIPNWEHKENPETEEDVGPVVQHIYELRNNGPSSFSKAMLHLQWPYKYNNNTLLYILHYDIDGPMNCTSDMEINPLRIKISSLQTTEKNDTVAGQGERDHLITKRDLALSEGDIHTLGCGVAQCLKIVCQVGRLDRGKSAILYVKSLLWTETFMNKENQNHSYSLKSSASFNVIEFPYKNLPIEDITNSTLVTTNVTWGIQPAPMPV
T1 sequence (P05106 27-718, chain 2 of 2): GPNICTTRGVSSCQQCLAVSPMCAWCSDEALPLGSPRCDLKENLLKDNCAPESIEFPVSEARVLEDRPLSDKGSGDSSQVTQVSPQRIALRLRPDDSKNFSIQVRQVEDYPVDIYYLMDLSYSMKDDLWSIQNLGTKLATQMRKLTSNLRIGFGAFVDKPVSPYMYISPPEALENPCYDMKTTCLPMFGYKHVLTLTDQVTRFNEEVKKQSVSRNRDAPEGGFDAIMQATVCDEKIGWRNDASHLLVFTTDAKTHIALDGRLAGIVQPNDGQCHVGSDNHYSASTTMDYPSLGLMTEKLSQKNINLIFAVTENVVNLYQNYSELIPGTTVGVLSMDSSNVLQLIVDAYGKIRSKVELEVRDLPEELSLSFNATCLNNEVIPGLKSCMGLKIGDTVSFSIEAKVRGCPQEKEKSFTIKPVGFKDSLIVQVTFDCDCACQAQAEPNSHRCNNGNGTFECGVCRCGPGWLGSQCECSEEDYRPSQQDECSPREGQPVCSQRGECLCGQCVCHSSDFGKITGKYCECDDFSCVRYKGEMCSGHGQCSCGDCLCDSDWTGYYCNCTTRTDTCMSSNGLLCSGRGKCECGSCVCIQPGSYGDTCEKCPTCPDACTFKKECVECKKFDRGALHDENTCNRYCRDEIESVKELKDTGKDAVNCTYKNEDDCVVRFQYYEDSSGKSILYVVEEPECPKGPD
procedure.details: Human FP Direct binding
Starred links: 1 amine or outer side, 2 acyl side, 3 side chain; linkers in the order of their positions; H or OH if unused. Positions of bridges follow the written chain, without caps; N, C: chain ends. Non-standard residues stand in square brackets, D forms with d. No end group written: not given here. *: point of attachment. FITC = O=C1OC2(c3ccc(O)cc3Oc3cc(O)ccc32)c2ccc(NC(=S)*)cc21; TATA = O=C(CC[*:1])N1CN(C(=O)CC[*:2])CN(C(=O)CC[*:3])C1; Ahx = NCCCCCC(=O)O; Fl = fluorescein; Sar = CNCC(=O)O
Write down the numeric answer in pM and omit the unit.

Quick note, Kd for {FITC-Ahx}-GRGSSP (also called FITC-Ahx-GRGSSP) [BCY7766] landed at 1140

// Ac-CPHIGRTDCPPCA[Sar][Sar][Sar][Sar][Sar][Sar]K(Fl) (linker 1-9-12 via TATA) [BCY7508] : Kd value = 50
